System: MPA bound to plasma proteins in normal human plasma (NHP)
Experiment: MPA enzyme immunoassay rates with releasing agents in Reagent A (NHP versus buffer), Example 2
Conditions: 0 to 10 μg/mL MPA in buffer
QUANTITY MEASURED: I (H-G) Buff Rate Span (mA/min)
Expressed in mA/min, but write only the number.

Please review the following examples before continuing.
• COc1ccc(C(=O)O)cc1 = 96.0
• COc1ccccc1C(=O)O = 109.3
• O=S(=O)(O)c1cccc2cccc(Nc3ccccc3)c12 [ANS, 8-anilino-1-naphthalene sulfonic acid, reference compound] = 120.2

Task item: Requested read-out: I (H-G) Buff Rate Span. Entry: "COc1cccc(C(=O)O)c1"
Reply: 90.3

Data provenance is patent US6887669B1.
